Cited source for all entries: patent US20250361322A1

target: human Tissue Factor (TF) (human, UniProt P13726 33-295); test: cell-based or functional assay
What % GM-CSF at 40 nM antibody was measured for each of the following?
One number for each entry, in %.

>>> reported_measurement("25A5 (antibody, human IgG1, V domains shown) VH: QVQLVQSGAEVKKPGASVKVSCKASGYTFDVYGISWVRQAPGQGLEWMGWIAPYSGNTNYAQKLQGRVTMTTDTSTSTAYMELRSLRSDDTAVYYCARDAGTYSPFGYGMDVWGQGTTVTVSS VL: DIQMTQSPSTLSASVGDRVTITCRASESISNWLAWYQQKPGKAPKLLIYKAYSLEYGVPSRFSGSGSGTEFTLTISSLQPDDFATYYCQQFQKLPPFTFGGGTKVEIK")
15

Let us move to another entry and its % GM-CSF at 40 nM antibody.
[in] Return value of % GM-CSF at 40 nM antibody for input 39A (antibody, human IgG1, V domains shown, Human IgG1; also called antibody designated 39A) VH: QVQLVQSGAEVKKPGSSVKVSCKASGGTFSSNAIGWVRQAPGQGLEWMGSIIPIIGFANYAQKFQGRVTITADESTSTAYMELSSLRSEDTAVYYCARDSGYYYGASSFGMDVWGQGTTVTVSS VL: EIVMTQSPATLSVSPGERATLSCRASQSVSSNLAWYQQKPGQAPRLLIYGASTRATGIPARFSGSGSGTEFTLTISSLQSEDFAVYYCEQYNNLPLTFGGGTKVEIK , no commentary.
[out] 5
